Form field: aptazyme ON/OFF ratio (one value per entry).
B1: Pistol ribozyme (parent)
chain: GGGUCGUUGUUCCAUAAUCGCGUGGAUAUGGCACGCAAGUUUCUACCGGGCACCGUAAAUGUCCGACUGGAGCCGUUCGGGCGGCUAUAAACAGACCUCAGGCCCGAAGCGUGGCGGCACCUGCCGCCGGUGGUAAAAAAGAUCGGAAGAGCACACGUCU

- Variants of: B1
- run description: aptazyme ON/OFF ratio, guanine; higher = stronger switching; co-transcriptional cleavage with and without guanine
assay metric: aptazyme ON/OFF ratio

[[record]]
mutant_name = "U7C U10C C12U C13A"
value = 1.3

[[record]]
mutant_name = "U7A U8C G9A U10A U11A C12G C13A"
value = 1.11

[[record]]
mutant_name = "U7G U8C G9C U11G C13A"
value = 1.24

[[record]]
mutant_name = "U7G U8A G9A U10C U11G C12A C13A"
value = 1.07

[[record]]
mutant_name = "U8G U10A C12A C13G"
value = 1.05

[[record]]
mutant_name = "U7A G9U U10A C13G"
value = 1.05

[[record]]
mutant_name = "U7G U8C G9A U11A C12U C13A"
value = 1.09

[[record]]
mutant_name = "U7A U8A G9A U11G C12G C13A"
value = 1.16

[[record]]
mutant_name = "U8A U11G"
value = 1.25

[[record]]
mutant_name = "U8G G9U U10G C12G C13G"
value = 1.05

[[record]]
mutant_name = "U7G U8G G9C U10G C12U C13A"
value = 1.06

[[record]]
mutant_name = "U7G U8A G9A U10G U11C C12G C13G"
value = 1.04

[[record]]
mutant_name = "U7G G9C U10C U11G C13G"
value = 1.17

[[record]]
mutant_name = "U7C U8A G9C U10C U11C C12U"
value = 1.02

[[record]]
mutant_name = "U7C G9A C12U C13G"
value = 1.18

[[record]]
mutant_name = "U7A U8C G9U U10G U11C C12A C13G"
value = 1.15

[[record]]
mutant_name = "U7A G9A U11A C12U C13G"
value = 1.22

[[record]]
mutant_name = "U7C U8G G9A U10A U11G C12A"
value = 1.06

[[record]]
mutant_name = "U8G U10G U11C C12A C13A"
value = 1.06

[[record]]
mutant_name = "U7A U8C G9U U10G C12G"
value = 1.13

[[record]]
mutant_name = "U7A U8G U10A C12U C13G"
value = 1.25

[[record]]
mutant_name = "U7G U8G G9A U10C U11C C12G C13A"
value = 1.16

[[record]]
mutant_name = "U8A G9U U10A U11C C12A C13A"
value = 1.23

[[record]]
mutant_name = "U7G U8G U10G C12A C13U"
value = 1.4

[[record]]
mutant_name = "U7A U8C G9A U10G U11C C13G"
value = 1.06

[[record]]
mutant_name = "U7C U8G U10G U11A C12G C13U"
value = 1.14

[[record]]
mutant_name = "U7A U8C G9A U10A U11A C12G"
value = 1.24

[[record]]
mutant_name = "U7C U8A G9C C12G C13A"
value = 1.14

[[record]]
mutant_name = "U7A U8G G9U U10A U11A C12U C13G"
value = 1.24

[[record]]
mutant_name = "U7C G9U U10A U11A C12G C13U"
value = 1.2

[[record]]
mutant_name = "U7A G9U U10C C12A"
value = 1.14

[[record]]
mutant_name = "U7C U8C U10C U11C C12U C13G"
value = 1.15

[[record]]
mutant_name = "U7G U8G G9C U11A C12A"
value = 1.31

[[record]]
mutant_name = "U7A U8G G9C U10C U11A C12U C13A"
value = 1.13

[[record]]
mutant_name = "U7C U8A G9C U10A U11G C13U"
value = 1.16

[[record]]
mutant_name = "U7G U8C G9C U10A C12A C13A"
value = 1.08

[[record]]
mutant_name = "G9C U10C U11C C12G C13A"
value = 1.08

[[record]]
mutant_name = "U7G U8C G9A U10G U11C C13U"
value = 1.05

[[record]]
mutant_name = "U7G U10A C12A C13A"
value = 1.21

[[record]]
mutant_name = "U7G U8A G9A U11C C13A"
value = 1.07

[[record]]
mutant_name = "U8G G9U U10C C12A"
value = 1.19

[[record]]
mutant_name = "U7G U8C G9A U11C C12U"
value = 1.65

[[record]]
mutant_name = "U7C G9A U10A C12A C13A"
value = 1.17

[[record]]
mutant_name = "U7C U8C G9A U10A U11A C12A"
value = 1.5

[[record]]
mutant_name = "U8A U10A U11C C12G C13U"
value = 1.16

[[record]]
mutant_name = "U7G U8A G9U U10C U11C C12A C13G"
value = 1.23

[[record]]
mutant_name = "U7G U8C G9C U10G U11C"
value = 1.15

[[record]]
mutant_name = "U7A G9A U10C U11C C12A C13G"
value = 1.08

[[record]]
mutant_name = "U8G G9A C12U"
value = 1.39

[[record]]
mutant_name = "U8A G9C U10A U11C C12A C13G"
value = 1.12

[[record]]
mutant_name = "U8G G9C U10A U11A C13A"
value = 1.11

[[record]]
mutant_name = "U7G U8A G9C U10C U11C C12U C13A"
value = 1.02

[[record]]
mutant_name = "U7C U8C G9U U10C U11G C12U C13U"
value = 1.21

[[record]]
mutant_name = "U7G U8A G9A U10A C12A C13U"
value = 1.14

[[record]]
mutant_name = "U7A G9A U10C C12G C13U"
value = 1.2

[[record]]
mutant_name = "U8G G9C U10G C12U C13G"
value = 1.11

[[record]]
mutant_name = "U7A U8A C12U"
value = 1.59

[[record]]
mutant_name = "U7C U8G G9A U11A C13A"
value = 1.2

[[record]]
mutant_name = "U7C U8A G9A U10G U11A C12A C13U"
value = 1.17

[[record]]
mutant_name = "U7C U8A U10G C12U C13G"
value = 1.13

[[record]]
mutant_name = "U8G U10G U11A C12A C13G"
value = 1.14

[[record]]
mutant_name = "U7A U10G C12A C13G"
value = 1.09

[[record]]
mutant_name = "U8C G9C U10G U11G C12G C13U"
value = 1.11

[[record]]
mutant_name = "U7G U8G G9A U11C C12G C13G"
value = 1.11

[[record]]
mutant_name = "U7C G9A U10G C12A C13A"
value = 1.15

[[record]]
mutant_name = "G9A U10C U11G C12U C13A"
value = 1.37

[[record]]
mutant_name = "U7G U8A G9A U10G U11A C12A C13G"
value = 1.16

[[record]]
mutant_name = "U10G C12A C13U"
value = 1.19

[[record]]
mutant_name = "U7A U8C G9C U10C U11C C12U C13G"
value = 1.02

[[record]]
mutant_name = "U7G U10C U11A C13U"
value = 1.16

[[record]]
mutant_name = "U7A U10G U11C C12U"
value = 1.09

[[record]]
mutant_name = "U7G U8G G9A U10C C12U C13U"
value = 1.29

[[record]]
mutant_name = "U7C U8C G9U U10C C12G C13A"
value = 1.11

[[record]]
mutant_name = "U7C U8G G9U U11A C12A C13G"
value = 1.19

[[record]]
mutant_name = "U7A U8C G9A U10C U11A C12G C13A"
value = 1.1


Values were extracted from the RNAGym collection of RNA variant scans (doi:10.1021/acssynbio.7b00057).
